Reference for the values: PubChem BioAssay AID720700

biological target: 1-phosphatidylinositol 4,5-bisphosphate phosphodiesterase gamma-1 (Homo sapiens) (UniProt P19174); assay: PLC-gamma1 enzyme inhibitors, primary screen, biochemical, fluorescence, purified enzyme (AID 720700); conditions: purified PLC-gamma1, fluorogenic substrate, at 12.2 µM, active compounds read high
Sequence (P19174 whole entry, looked up): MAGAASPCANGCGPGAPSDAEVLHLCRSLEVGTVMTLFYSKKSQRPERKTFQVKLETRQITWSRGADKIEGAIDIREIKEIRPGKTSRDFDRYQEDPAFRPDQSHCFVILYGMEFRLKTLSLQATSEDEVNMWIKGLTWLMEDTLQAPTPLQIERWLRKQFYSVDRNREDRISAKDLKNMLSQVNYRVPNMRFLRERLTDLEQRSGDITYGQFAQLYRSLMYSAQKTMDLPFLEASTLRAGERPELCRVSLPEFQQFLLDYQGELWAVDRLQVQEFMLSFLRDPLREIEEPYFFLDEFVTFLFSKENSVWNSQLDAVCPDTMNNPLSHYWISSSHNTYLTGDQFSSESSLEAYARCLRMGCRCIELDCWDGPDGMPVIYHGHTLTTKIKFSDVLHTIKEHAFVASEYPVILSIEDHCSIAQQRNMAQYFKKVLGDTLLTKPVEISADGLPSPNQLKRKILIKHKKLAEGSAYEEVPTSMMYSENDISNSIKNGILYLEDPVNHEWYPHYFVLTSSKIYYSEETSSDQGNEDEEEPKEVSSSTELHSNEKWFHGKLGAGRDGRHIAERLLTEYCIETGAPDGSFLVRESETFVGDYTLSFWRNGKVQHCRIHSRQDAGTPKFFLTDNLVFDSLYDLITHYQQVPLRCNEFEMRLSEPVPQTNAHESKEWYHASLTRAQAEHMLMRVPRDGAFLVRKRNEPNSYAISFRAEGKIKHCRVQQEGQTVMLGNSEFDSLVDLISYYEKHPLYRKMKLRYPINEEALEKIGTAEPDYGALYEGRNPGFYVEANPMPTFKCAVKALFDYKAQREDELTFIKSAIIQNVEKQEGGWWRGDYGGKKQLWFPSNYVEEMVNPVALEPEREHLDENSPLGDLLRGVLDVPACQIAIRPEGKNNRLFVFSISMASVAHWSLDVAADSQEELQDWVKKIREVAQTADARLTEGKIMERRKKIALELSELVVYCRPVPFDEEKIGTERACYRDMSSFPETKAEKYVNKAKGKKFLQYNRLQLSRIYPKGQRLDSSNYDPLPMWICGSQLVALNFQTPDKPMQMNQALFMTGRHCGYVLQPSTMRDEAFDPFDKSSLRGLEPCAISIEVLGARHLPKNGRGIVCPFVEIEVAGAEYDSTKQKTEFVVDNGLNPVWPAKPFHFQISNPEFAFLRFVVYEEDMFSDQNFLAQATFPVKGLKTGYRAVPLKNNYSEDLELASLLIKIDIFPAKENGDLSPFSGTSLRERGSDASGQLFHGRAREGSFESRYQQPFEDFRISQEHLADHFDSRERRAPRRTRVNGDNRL
The campaign covered roughly 370,000 compounds. About 3,100 (0.84%) were called active. This excerpt belongs to a sample that is enriched for actives.
endpoint-name: inhibition (%)

> print(dat)
                                    compound  endpoint.name  observed.result
 1  CN(CC(=O)Nc1ccccc1Cl)C(=O)COc1cccc2c1OC(C)(C)C2     inhibition             11.8
 2  CCOC(=O)C1CCN(C(=O)c2ccccc2N(C)S(=O)(=O)c2ccccc2)CC1     inhibition             12.6
 3  COC(CNC(=O)[C@H](Cc1ccccc1)NC1(C(=O)NC2CCCCC2)CCCCC1)OC     inhibition             0.41
 4        CC1(C)Cc2cccc(OCC(=O)Nc3nccs3)c2O1     inhibition             0.31
 5  O=C(c1c[nH]c2ccccc12)N1CCC(Oc2cccnc2)CC1     inhibition             5.31
 6  O=C(Nc1cc(F)cc(F)c1)OC1CCC12CCC(c1ccccc1)CC2 (stereo not drawn)     inhibition                0
 7  C#CCCN([C@H](C(=O)OC)C(C)C)S(=O)(=O)c1ccc(F)cc1Br     inhibition            -1.82
 8  NC(c1csc(NC(=O)Nc2cccc(C(F)(F)F)c2)n1)C1CCCCC1 (stereo not drawn)     inhibition             6.49
 9  CC(C)(C)NC(=O)C(c1cccnc1)N(C(=O)c1cnco1)c1ccc(C(C)(C)C)cc1 (stereo not drawn)     inhibition             0.93
10  COC(=O)C[C@@H]1CC[C@H]2[C@@H](COc3ccc(NS(=O)(=O)CC(F)(F)F)cc3C(=O)N2C)O1     inhibition             0.55
11  COc1ccc(N2CC(C(=O)NCCS(=O)(=O)N3CCN(c4ccccc4)CC3)CC2=O)cc1 (stereo not drawn)     inhibition             4.62
12  CC1CCN(c2ccc(C(=O)O)cc2NS(=O)(=O)c2ccc(Br)s2)CC1     inhibition             2.88
13  CCOC(=O)C1CCN(C(=O)c2cccc(S(=O)(=O)N(CC)c3ccccc3)c2)CC1     inhibition             1.63

---

target: 1-phosphatidylinositol 4,5-bisphosphate phosphodiesterase gamma-1 (Homo sapiens); assay: PLC-gamma1 enzyme inhibitors, primary screen, biochemical, fluorescence, purified enzyme (AID 720700); conditions: purified PLC-gamma1, fluorogenic substrate, at 12.2 µM
The campaign covered roughly 370,000 compounds. About 3,100 (0.84%) were called active. No stated cut-off is given here; in the data, active means inhibition above about 9.5%; inactive means the rest. Many of the other results were omitted from the sample, so actives are more common in it than they were.
Labels: yes (active), no (inactive)

> print(dat)
                                    compound  class.assignment
 1  CC(C)C(NC(=O)C1CCC(C(C)(C)C)CC1)C(=O)NCCCN1CCCCC1 (stereo not given)               yes
 2  O=C(CN1CCN(S(=O)(=O)c2ccc(F)cc2)CC1)NC1CC1                no
 3  CCN(CC)CCCNC(=O)c1ccc2c(=O)n(Cc3ccc4c(c3)OCO4)c(=S)[nH]c2c1                no
 4  O=C(NCCCN1CCCCCC1)C1CC(=O)N(C2CCCC2)C1 (stereo not given)                no
 5  CC(c1ccc(N)cc1)c1cn(C)c2ccccc12 (stereo not given)                no
 6  O=C(NCc1ccco1)C1CCCN(S(=O)(=O)c2ccc(Cl)s2)C1 (stereo not given)                no
 7  O=S(=O)(c1ccc(F)cc1)N1CCN(C(=S)NC2CCCC2)CC1               yes
 8  COC(=O)[C@]1(S(=O)(=O)c2ccccc2)C[C@@H]2ON=C(c3ccc(OC)cc3)[C@@H]2C1                no
 9  O=C(NC(C(=O)NCCN1CCOCC1)C12CC3CC(CC(C3)C1)C2)C1CCCCC1 (stereo not given)                no
10         O=C(CN1CCOCC1)Nc1c(Cl)cc(Cl)cc1Cl                no

---

biological target: 1-phosphatidylinositol 4,5-bisphosphate phosphodiesterase gamma-1 (Homo sapiens) (UniProt P19174); assay: PLC-gamma1 enzyme inhibitors, primary screen, biochemical, fluorescence, purified enzyme (AID 720700); settings: purified PLC-gamma1, fluorogenic substrate, at 12.2 µM, active compounds read high
In all, about 370,000 compounds went through this assay and about 3,100 (0.84%) were called active. Shown is part of a subset that was picked to be rich in actives.
endpoint-name: inhibition (%)

> print(dat)
                                    compound  measure.unit  observed.result
 1  CN(C(N)=NC(=O)/C=C/c1ccccc1)C(C#Cc1ccccc1)Cc1ccccc1 (configuration not stated)             %            -3.61
 2  O=C1c2ccccc2C(O)N1Cc1ccccc1Cl (configuration not stated)             %            -1.89
 3  N#Cc1cccc(NC(=O)c2cc(C3CCCCN3C(=O)CCc3ccccc3)on2)c1 (configuration not stated)             %             5.27
 4  CC(c1c[nH]c2ccccc12)c1c(-c2ccccc2)n(C)c2ccccc12 (configuration not stated)             %            -4.35
 5  O=C(NCc1cccnc1)c1cc(C2CCCN(C(=O)CCCc3ccccc3)C2)on1 (configuration not stated)             %             3.28
 6  O=C(C1CCCN1S(=O)(=O)c1ccccc1)N1CCc2ccccc2C1 (configuration not stated)             %            -1.86
 7   CN(CC(=O)NC1CCCCC1)S(=O)(=O)c1ccc(Br)s1             %             10.4
 8  C[C@H](C(=O)N(C)c1ccccc1)[C@@H](O)c1ccc(Cl)cc1             %             0.47
 9  O=C(CCNS(=O)(=O)c1ccc(Br)cc1)NCC1CCCO1 (configuration not stated)             %             12.3
10  COC(=O)C[C@H]1CC[C@H]2[C@H](COc3ccc(NC(=O)C4CC4)cc3C(=O)N2C)O1             %               -1
11  CC(C)CNc1cccc2c1S(=O)(=O)N(Cc1cn(Cc3ccc(Cl)cc3)nn1)Cc1ccccc1O2             %            -48.8
12         O=C(CN1CCCc2ccccc21)NCc1ccc(F)cc1             %            -1.61
13  O=C(Nc1ccc(Br)cc1)C1CCC(=O)N1Cc1ccccc1Cl (configuration not stated)             %             9.91
14  CN[C@H]1C[C@H]2c3cc(N4CCOCC4)ccc3CCN2C[C@H]1[C@H](C)O             %            -7.18
15  CCOc1ccc(-c2c(C)n([O-])c3c([n+]2=O)CCCC3)cc1             %            -0.45
16  COC(=O)C[C@@H]1CC[C@@H]2[C@@H](COc3ccc(NC(=O)Nc4ccc(F)c(F)c4)cc3C(=O)N2C)O1             %              1.9
17     CCOC(=O)Nc1ccc(S(=O)(=O)N(C)C(C)C)cc1             %             0.75
18     COc1ccc(-c2ccc(CNCCCN3CCOCC3)o2)cc1Cl             %             1.38
19  COc1ccc2c(C(C)c3ccc(N)cc3)cn(C)c2c1 (configuration not stated)             %             3.03
20  Clc1ccc(-n2c(COc3ccccc3)nnc2SCc2nc3ccccc3[nH]2)cc1             %            -0.91
21      O=S(=O)(NCCCN1CCOCC1)c1ccc(F)c(Cl)c1             %            -0.87
22  COc1cccc(N(C)C(=O)[C@@H](C)[C@@H](O)c2ccc3ccccc3c2)c1             %            -0.17

---

target: 1-phosphatidylinositol 4,5-bisphosphate phosphodiesterase gamma-1 (Homo sapiens); assay: PLC-gamma1 enzyme inhibitors, primary screen, biochemical, fluorescence, purified enzyme (AID 720700); details: purified PLC-gamma1, fluorogenic substrate, at 12.2 µM, active compounds read high
Among all 370,000 compounds or so, about 3,100 (0.84%) were called active. What follows is part of a selection rich in actives, with near analogues and random picks from the rest.
endpoint-name: inhibition (%)

> print(dat)
                                    compound  endpoint.name  observed.result
 1  Cc1cccc(NC(=O)c2ccc(COc3ccccc3[N+](=O)[O-])o2)n1     inhibition            -0.91
 2    O=c1c([N+](=O)[O-])cccn1Cc1ccc(F)cc1Cl     inhibition             3.37
 3  COc1ccc(-c2ccc(CN3C(CC(C)C)C(=O)N(Cc4cn(CC5CCCCC5)nn4)CCS3(=O)=O)cc2)cc1 (stereo not given)     inhibition             13.6
 4  O=C(Nc1ccc(C(F)(F)F)cc1)c1cccc(-n2cnnn2)c1     inhibition            -2.72
 5                  NC1=CC(=O)C(=O)c2cccnc21     inhibition             11.2
 6  O=C(CSc1nc2ccccc2n1Cc1ccccc1Cl)N/N=C\c1c[nH]c2ccccc12     inhibition             1.37
 7  COc1ccc(C(=O)CSc2nnc(-c3cnccn3)n2-c2ccc(C)cc2)cc1     inhibition             -2.8
 8  O=C(Cn1cc(/C=N/NC(=O)c2cccc(C(F)(F)F)c2)c2ccccc21)Nc1ccc(F)cc1     inhibition             -0.8
 9  FC(F)(F)c1cccc(Cn2ccc3ccc(-c4ccc5ccn(Cc6ccccc6)c5c4)cc32)c1     inhibition            -66.4
10  O=C(c1ccncc1)N1CC[C@H]2[C@H](CCCN2Cc2ccc(F)cc2)C1     inhibition             2.52
